Kindly supply the reported Percentage cytotoxicity values for the records listed here.
Tested on: HeP2 (laryngeal)
Assay: MTT cytotoxicity assay, 48 hours (Example 14)
Assay type: cell-based
Conditions: HeP2, 1 nM
Non-standard residues stand in square brackets, D forms with d. Residues, ends and D or L forms follow the SMILES beside them. *: point of attachment. Octanoyl = CCCCCCCC(=O)*; Ac5c = NC1(C(=O)O)CCCC1; Deg = CCC(N)(CC)C(=O)O; Aib = CC(C)(N)C(=O)O; Butyryl = CCCC(=O)*
Value expressed in %; do not type the unit.

Give reported Percentage cytotoxicity for CCC(CC)(NC(=O)[C@H](Cc1c[nH]c2ccccc12)NC(=O)[C@H](CCC(N)=O)NC(=O)[C@H](N)Cc1ccccc1)C(=O)N[C@H](C(=O)NCC(=O)N[C@@H](Cc1c[nH]cn1)C(=O)N[C@@H](CC(C)C)C(N)=O)C(C)C [SEQ ID: 9, D-Phe-Gln-Trp-Deg-Val-Gly-His-Leu-NH2] (H-[dF]QW[Deg]VGHL-NH2; N-terminus assumed) (HeP2 (laryngeal))
21.3

Give reported Percentage cytotoxicity for CCCCCCCC(=O)N[C@H](Cc1ccccc1)C(=O)N[C@@H](CCC(N)=O)C(=O)N[C@@H](Cc1c[nH]c2ccccc12)C(=O)N[C@@H](C)C(=O)N[C@H](C(=O)NC(C)(C)C(=O)N[C@@H](Cc1c[nH]cn1)C(=O)N[C@@H](CC(C)C)C(N)=O)C(C)C [SEQ ID: 12] (Octanoyl-[dF]QWAV[Aib]HL-NH2) (HeP2 (laryngeal))
28.9

Give reported Percentage cytotoxicity for CCCC(=O)N[C@H](Cc1ccccc1)C(=O)N[C@@H](CCC(N)=O)C(=O)N[C@@H](Cc1c[nH]c2ccccc12)C(=O)N[C@@H](C)C(=O)N[C@H](C(=O)NC(C)(C)C(=O)N[C@@H](Cc1c[nH]cn1)C(=O)N[C@@H](CC(C)C)C(N)=O)C(C)C [SEQ ID: 11] (Butyryl-[dF]QWAV[Aib]HL-NH2) (HeP2 (laryngeal))
37.1

Give reported Percentage cytotoxicity for CC(C)C[C@H](NC(=O)[C@H](Cc1c[nH]cn1)NC(=O)C1(NC(=O)[C@@H](NC(=O)[C@H](C)NC(=O)[C@H](Cc2c[nH]c3ccccc23)NC(=O)[C@H](CCC(N)=O)NC(=O)[C@H](N)Cc2ccccc2)C(C)C)CCCC1)C(N)=O [SEQ ID: 10, D-Phe-Gln-Trp-Ala-Val-Ac5c-His-Leu-NH2] (H-[dF]QWAV[Ac5c]HL-NH2; N-terminus assumed) (HeP2 (laryngeal))
27.2

---

System: A549 (lung)
Assay: MTT cytotoxicity assay, 72 hours (Example 13)
Format: cell-based, human
Conditions: A549, 10 nM
Non-standard residues stand in square brackets, D forms with d. Residues, ends and D or L forms follow the SMILES beside them. Aib = CC(C)(N)C(=O)O
hey, just use yes (1) if measured Percent Cytotoxicity is less than 20%, otherwise no (0)

Lab note: Percent Cytotoxicity threshold 20%. Does this compound come in strictly under it? CC[C@H](C)[C@H](NC(=O)[C@H](Cc1c[nH]cn1)NC(=O)CNC(=O)[C@@H](NC(=O)C(C)(C)NC(=O)[C@H](Cc1c[nH]c2ccccc12)NC(=O)[C@H](CCC(N)=O)NC(=O)[C@H](N)Cc1ccccc1)C(C)C)C(N)=O [SEQ ID: 6, D-Phe-Gln-Trp-Aib-Val-Gly-His-Ile-NH2] (H-[dF]QW[Aib]VGHI-NH2; N-terminus assumed)
yes (1)

Lab note: Percent Cytotoxicity threshold 20%. Does this compound come in strictly under it? CC(C)C[C@H](NC(=O)[C@H](Cc1c[nH]cn1)NC(=O)CNC(=O)[C@@H](NC(=O)C(C)(C)NC(=O)[C@H](Cc1c[nH]c2ccccc12)NC(=O)[C@H](CCC(N)=O)NC(=O)[C@H](N)Cc1ccccc1)C(C)C)C(N)=O [SEQ ID: 4, D-Phe-Gln-Trp-Aib-Val-Gly-His-Leu-NH2] (H-[dF]QW[Aib]VGHL-NH2; N-terminus assumed)
no (0)

Lab note: Percent Cytotoxicity threshold 20%. Does this compound come in strictly under it? CC[C@H](C)[C@H](NC(=O)[C@H](Cc1c[nH]cn1)NC(=O)C(C)(C)NC(=O)[C@@H](NC(=O)[C@H](C)NC(=O)[C@H](Cc1c[nH]c2ccccc12)NC(=O)[C@H](CCC(N)=O)NC(=O)[C@H](N)Cc1ccccc1)C(C)C)C(N)=O [SEQ ID: 7, D-Phe-Gln-Trp-Ala-Val-Aib-His-Ile-NH2] (H-[dF]QWAV[Aib]HI-NH2; N-terminus assumed)
yes (1)

Lab note: Percent Cytotoxicity threshold 20%. Does this compound come in strictly under it? CCCC(CCC)(NC(=O)[C@@H](NC(=O)[C@H](C)NC(=O)[C@@H](Cc1c[nH]c2ccccc12)NC(=O)[C@H](CCC(N)=O)NC(=O)[C@H](N)Cc1ccccc1)C(C)C)C(=O)N[C@@H](Cc1c[nH]cn1)C(=O)N[C@@H](CC(C)C)C(N)=O
no (0)

Lab note: Percent Cytotoxicity threshold 20%. Does this compound come in strictly under it? CC(C)C[C@H](NC(=O)[C@H](Cc1c[nH]cn1)NC(=O)C(C)(C)NC(=O)[C@@H](NC(=O)[C@H](C)NC(=O)[C@@H](Cc1c[nH]c2ccccc12)NC(=O)[C@H](CCC(N)=O)NC(=O)[C@H](N)Cc1ccccc1)C(C)C)C(N)=O [SEQ ID: 5, D-Phe-Gln-D-Trp-Ala-Val-Aib-His-Leu-NH2] (H-[dF]Q[dW]AV[Aib]HL-NH2; N-terminus assumed)
no (0)

---

System: A549 (lung)
Experiment: MTT cytotoxicity assay, 72 hours (Example 13)
Format: cell-based, human
Settings: A549, 100 PM
Non-standard residues stand in square brackets, D forms with d. Residues, ends and D or L forms follow the SMILES beside them. Aib = CC(C)(N)C(=O)O
measuredMetric: Percent Cytotoxicity (%)
Value expressed in %; do not type the unit.

Look up Percent Cytotoxicity of CCCC(CCC)(NC(=O)[C@@H](NC(=O)[C@H](C)NC(=O)[C@@H](Cc1c[nH]c2ccccc12)NC(=O)[C@H](CCC(N)=O)NC(=O)[C@H](N)Cc1ccccc1)C(C)C)C(=O)N[C@@H](Cc1c[nH]cn1)C(=O)N[C@@H](CC(C)C)C(N)=O [SEQ ID: 8, D-Phe-Gln-D-Trp-Ala-Val-Dpg-His-Leu-NH2] and report it.
17.0

Look up Percent Cytotoxicity of CC[C@H](C)[C@H](NC(=O)[C@H](Cc1c[nH]cn1)NC(=O)CNC(=O)[C@@H](NC(=O)C(C)(C)NC(=O)[C@H](Cc1c[nH]c2ccccc12)NC(=O)[C@H](CCC(N)=O)NC(=O)[C@H](N)Cc1ccccc1)C(C)C)C(N)=O [SEQ ID: 6, D-Phe-Gln-Trp-Aib-Val-Gly-His-Ile-NH2] (H-[dF]QW[Aib]VGHI-NH2; N-terminus assumed) and report it.
12.4

Look up Percent Cytotoxicity of CC(C)C[C@H](NC(=O)[C@H](Cc1c[nH]cn1)NC(=O)CNC(=O)[C@@H](NC(=O)C(C)(C)NC(=O)[C@H](Cc1c[nH]c2ccccc12)NC(=O)[C@H](CCC(N)=O)NC(=O)[C@H](N)Cc1ccccc1)C(C)C)C(N)=O [SEQ ID: 4, D-Phe-Gln-Trp-Aib-Val-Gly-His-Leu-NH2] (H-[dF]QW[Aib]VGHL-NH2; N-terminus assumed) and report it.
20.7

Look up Percent Cytotoxicity of CC(C)C[C@H](NC(=O)[C@H](Cc1c[nH]cn1)NC(=O)C(C)(C)NC(=O)[C@@H](NC(=O)[C@H](C)NC(=O)[C@@H](Cc1c[nH]c2ccccc12)NC(=O)[C@H](CCC(N)=O)NC(=O)[C@H](N)Cc1ccccc1)C(C)C)C(N)=O [SEQ ID: 5, D-Phe-Gln-D-Trp-Ala-Val-Aib-His-Leu-NH2] (H-[dF]Q[dW]AV[Aib]HL-NH2; N-terminus assumed) and report it.
25.2

---

System: DU145 (prostate)
Test: MTT cytotoxicity assay, 72 hours (Example 13)
Type: cell-based, human
Details: DU145, 10 nM
Non-standard residues stand in square brackets, D forms with d. Residues, ends and D or L forms follow the SMILES beside them. Aib = CC(C)(N)C(=O)O
measuredMetric: Percent Cytotoxicity (%)
Value expressed in %; do not type the unit.

Look up Percent Cytotoxicity of CCCC(CCC)(NC(=O)[C@@H](NC(=O)[C@H](C)NC(=O)[C@@H](Cc1c[nH]c2ccccc12)NC(=O)[C@H](CCC(N)=O)NC(=O)[C@H](N)Cc1ccccc1)C(C)C)C(=O)N[C@@H](Cc1c[nH]cn1)C(=O)N[C@@H](CC(C)C)C(N)=O [SEQ ID: 8, D-Phe-Gln-D-Trp-Ala-Val-Dpg-His-Leu-NH2] and report it.
22.5

Look up Percent Cytotoxicity of CC[C@H](C)[C@H](NC(=O)[C@H](Cc1c[nH]cn1)NC(=O)CNC(=O)[C@@H](NC(=O)C(C)(C)NC(=O)[C@H](Cc1c[nH]c2ccccc12)NC(=O)[C@H](CCC(N)=O)NC(=O)[C@H](N)Cc1ccccc1)C(C)C)C(N)=O [SEQ ID: 6, D-Phe-Gln-Trp-Aib-Val-Gly-His-Ile-NH2] (H-[dF]QW[Aib]VGHI-NH2; N-terminus assumed) and report it.
16.6

Value source: patent US6989371B1
